Attribution: patent US20250170266A1

- System Under Test: hTLR7 (Homo sapiens, UniProt Q9NYK1)
- Sequence (Q9NYK1 27-1049): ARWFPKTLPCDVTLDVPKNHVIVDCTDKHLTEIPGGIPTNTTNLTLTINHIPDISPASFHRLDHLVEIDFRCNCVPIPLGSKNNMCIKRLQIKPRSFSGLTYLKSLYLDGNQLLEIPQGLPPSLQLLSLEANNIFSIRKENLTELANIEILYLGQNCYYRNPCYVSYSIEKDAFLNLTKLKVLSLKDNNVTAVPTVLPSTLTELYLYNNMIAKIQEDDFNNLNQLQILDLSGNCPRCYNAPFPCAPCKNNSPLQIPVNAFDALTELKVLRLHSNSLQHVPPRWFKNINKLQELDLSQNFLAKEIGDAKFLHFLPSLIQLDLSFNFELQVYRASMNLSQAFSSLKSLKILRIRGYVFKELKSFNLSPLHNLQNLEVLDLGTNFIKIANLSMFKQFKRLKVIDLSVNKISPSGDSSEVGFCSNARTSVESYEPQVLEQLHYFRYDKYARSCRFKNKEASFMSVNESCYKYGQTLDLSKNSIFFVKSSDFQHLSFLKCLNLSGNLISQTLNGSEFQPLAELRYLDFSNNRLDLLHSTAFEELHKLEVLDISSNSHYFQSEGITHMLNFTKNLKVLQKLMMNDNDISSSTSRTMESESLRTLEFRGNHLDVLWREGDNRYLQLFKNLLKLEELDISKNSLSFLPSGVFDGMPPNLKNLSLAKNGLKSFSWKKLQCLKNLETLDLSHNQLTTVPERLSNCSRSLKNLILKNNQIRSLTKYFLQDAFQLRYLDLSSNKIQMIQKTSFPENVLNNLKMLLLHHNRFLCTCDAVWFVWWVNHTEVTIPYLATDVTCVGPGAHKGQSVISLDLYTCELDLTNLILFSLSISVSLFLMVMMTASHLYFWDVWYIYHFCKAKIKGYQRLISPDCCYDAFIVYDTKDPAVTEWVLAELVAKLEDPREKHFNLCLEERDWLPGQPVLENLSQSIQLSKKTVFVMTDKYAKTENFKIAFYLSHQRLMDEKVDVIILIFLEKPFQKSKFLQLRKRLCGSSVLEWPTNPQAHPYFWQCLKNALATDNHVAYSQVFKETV
- Assay Comment: Reporter Gene Assay (RGA), HEK-Blue hTLR7 reporter cells, SEAP readout
- Recorded Conditions: overnight incubation, SEAP absorbance 620 nm
# EC50 values compiled below

# annotated cases, reported EC50 shown
> print(dat)
                                   molecule  assay.endpoint  reported.measurement
1  CCCCOc1nc(N)c2nc(O)n(Cc3ccc(N4CCC(N)CC4)cc3OC)c2n1 [Compound 170]            EC50                  1 nM
2  CCOc1nc(N)c2nc(O)n(Cc3ccc(CN)cc3OC)c2n1 [Compound 123]            EC50               30.7 nM
3  CCCCOc1nc(N)c2nc(O)n(Cc3ccc(CCCN4CCC(CCN)CC4)cc3OC)c2n1 [Compound 175]            EC50              < 0.1 nM

Proceed to the following item.
Q. Tell me its EC50 on hTLR7 (Homo sapiens, UniProt Q9NYK1): CCCCOc1nc(N)c2nc(O)n(Cc3ccc(CNC(CO)[C@@H](C)CC)cc3OC)c2n1 (stereo in doubt) [Compound 161]
A. < 0.1 nM
